Target: T1, GvpC C-terminal fragment Cterm (Halobacterium salinarum, UniProt P24574 329-382)
T1 construct: GvpC of Halobacterium salinarum, aa 329-382, the globular C-terminal domain with a zinc-finger motif; GFP fragment at the N- or C-terminus; source: Hfx. volcanii WR340 transformant, split-GFP fusion in living cells
T1 sequence (looked up): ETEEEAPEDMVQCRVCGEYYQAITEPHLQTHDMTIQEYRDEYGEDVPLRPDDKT
Assay: split reporter (BiFC, NanoBiT); split-GFP (NGFP and CGFP of salt-stable mGFP2) in Hfx. volcanii transformants, 24 h 37 °C then 24 h 30 °C; relative fluorescence (rf) against the wild type; the highest of eight tag combinations is given
Details: partners not purified

>  <binder>
GvpF fused to NGFP or CGFP (natural protein, Halobacterium salinarum, UniProt Q9HI21 1-213, looked up, GvpF (wild type) of the p-vac region of Halobacterium salinarum; R213 is the very last aa; parent of the GvpF variants; also called Fwt; WT; source: Hfx. volcanii WR340 transformant, split-GFP fusion in living cells) MTENLYTYGIIEQEDLELDVEGVAGAEQVYTVDYKTLSAVVSDIDTTDPERTDEDVEAHNNVLQEVLKHEEERTVVPMSFGMAFKSARTLKGVLRGARRALRSTLNDIEGTVELGVKILGPGDDTVPREEIQENVTDQLADLSINETENDLFTDRLIINKSYLVDFEKRDAFDSAIDDVEAEYDELTIQYTGPWPPYNFVDIHIGAEQQQGGR

>  <relative fluorescence (rf)>
> 18 LAU/mm^2

$$$$
>  <binder>
GvpL fused to NGFP or CGFP (natural protein, Halobacterium salinarum, UniProt Q9HI27 1-281, looked up, accessory gas vesicle protein GvpL of Halobacterium salinarum; construct of earlier work; source: Hfx. volcanii WR340 transformant, split-GFP fusion in living cells) MTDHRPSPEEEQTTANEERTVSNGRYLYCVVDTTSSESATLSTTGVDDNPVYVVEADGVGAVVHDCETVYETEDLEQVKRWLVTHQQVVDAASDAFGTPLPMRFDTVLEGGDASIERWLEDHYEGFRDELASFAGVWEYRINLLWDSAPFEETIADRDDRLRELRQRQQQSGAGKKFLLEKQSDQRLQELKRERRTELADQLKEAITPVVNDLTEQDTNTPLQDEHSSIEKEQIVRFAVLADEDDETALGDRLDTIVEHEGVEIRFTGPWPPYTFAPDIGK

>  <relative fluorescence (rf)>
> 18 LAU/mm^2

$$$$
>  <binder>
GvpI fused to NGFP or CGFP (natural protein, Halobacterium salinarum, UniProt Q9HI24 1-144, looked up, accessory gas vesicle protein GvpI of Halobacterium salinarum; construct of earlier work; source: Hfx. volcanii WR340 transformant, split-GFP fusion in living cells) MSDKQQQKHKQKARQARVKAQINRDKARRNLLRQREKLARRRTRNRKQSEPRRDDSDGDDTDGETVKNPAAHSTMPPQKSNAENAVRNSHSTVPKTPKYSDVTARERLYGQRLHQKTAGGNSEASAPSDESASGSPTEDEVNDE

>  <relative fluorescence (rf)>
> 18 LAU/mm^2

$$$$
